Test system: Streptococcus pneumoniae 1/1
assay overview: MIC against Streptococcus pneumoniae 1/1
Assay type: cell-based
experimental conditions: Table 2; Streptococcus pneumoniae 1/1, trimethoprim- and penicillin-resistant, serotype 6; clinical isolate; read-out: MIC Sp1/1
# log10 MIC annotations
parameter measured: log10 MIC (log10 of the value in mg/L)

{"compound": "CCOc1cc(Cc2cnc(N)nc2N)cc(OS(=O)(=O)CC(C)C)c1-c1ccc(N)c(F)c1", "assay system": "Streptococcus pneumoniae 1/1", "parameter measured": "log10 MIC", "recorded value": -0.30}
{"compound": "CCOc1cc(Cc2cnc(N)nc2N)cc(OCC)c1-c1cccs1", "assay system": "Streptococcus pneumoniae 1/1", "parameter measured": "log10 MIC", "recorded value": 0.60}
{"compound": "CCOc1cc(Cc2cnc(N)nc2N)cc(OCC2CC2)c1-c1ccc2c(c1)OCO2", "assay system": "Streptococcus pneumoniae 1/1", "parameter measured": "log10 MIC", "recorded value": 0.30}
{"compound": "CCOc1cc(Cc2cnc(N)nc2N)cc(OS(=O)(=O)C(C)C)c1-c1ccc2c(c1)OCO2", "assay system": "Streptococcus pneumoniae 1/1", "parameter measured": "log10 MIC", "recorded value": 0.30}
{"compound": "CCOc1cc(Cc2cnc(N)nc2N)cc(OS(=O)(=O)N(C)C)c1-c1ccc(OC(C)=O)cc1", "assay system": "Streptococcus pneumoniae 1/1", "parameter measured": "log10 MIC", "recorded value": 0.30}
{"compound": "CCOc1cc(Cc2cnc(N)nc2N)cc(OS(=O)(=O)CC(C)C)c1-c1ccc(OC)c(N)c1", "assay system": "Streptococcus pneumoniae 1/1", "parameter measured": "log10 MIC", "recorded value": -0.30}
{"compound": "CCCS(=O)(=O)Oc1cc(Cc2cnc(N)nc2N)cc(OCC)c1-c1cccc(N)c1", "assay system": "Streptococcus pneumoniae 1/1", "parameter measured": "log10 MIC", "recorded value": 0.00}
{"compound": "CCOc1cc(Cc2cnc(N)nc2N)cc(O[C@@H]2CCC[C@H]2OC)c1-c1ccc(O)cc1 (relative stereo)", "assay system": "Streptococcus pneumoniae 1/1", "parameter measured": "log10 MIC", "recorded value": 0.60}
{"compound": "CCOc1cc(Cc2cnc(N)nc2N)cc(OCCC2CCOCC2)c1-c1ccc(O)cc1", "assay system": "Streptococcus pneumoniae 1/1", "parameter measured": "log10 MIC", "recorded value": 0.00}
{"compound": "CCOc1cc(Cc2cnc(N)nc2N)cc(OCC)c1-c1ccc(CN2CCCC2)c(F)c1", "assay system": "Streptococcus pneumoniae 1/1", "parameter measured": "log10 MIC", "recorded value": 0.90}
{"compound": "CCOc1cc(Cc2cnc(N)nc2N)cc(OCC)c1-c1ccc(S(C)(=O)=O)cc1", "assay system": "Streptococcus pneumoniae 1/1", "parameter measured": "log10 MIC", "recorded value": 0.30}
{"compound": "CCOc1cc(Cc2cnc(N)nc2N)cc(OCC)c1-c1ccc(S(N)(=O)=O)cc1", "assay system": "Streptococcus pneumoniae 1/1", "parameter measured": "log10 MIC", "recorded value": 0.90}
{"compound": "CCOc1cc(Cc2cnc(N)nc2N)cc(OS(=O)(=O)CC(C)C)c1-c1ccc(O)cc1", "assay system": "Streptococcus pneumoniae 1/1", "parameter measured": "log10 MIC", "recorded value": -0.30}
{"compound": "CCOc1cc(Cc2cnc(N)nc2N)cc(OS(=O)(=O)C(C)CC)c1-c1ccc(N)c(F)c1 (stereo not shown)", "assay system": "Streptococcus pneumoniae 1/1", "parameter measured": "log10 MIC", "recorded value": -0.30}
{"compound": "CCOc1cc(Cc2cnc(N)nc2N)cc(OCC)c1-c1ccc(N)c(OC)c1", "assay system": "Streptococcus pneumoniae 1/1", "parameter measured": "log10 MIC", "recorded value": 0.60}
{"compound": "CCOc1cc(Cc2cnc(N)nc2N)cc(OS(=O)(=O)CC(C)(C)C)c1-c1cccc(N)c1", "assay system": "Streptococcus pneumoniae 1/1", "parameter measured": "log10 MIC", "recorded value": -0.30}
